As shown below, each of these compounds has a reported IC50 value.
TARGET SYSTEM: recombinant VCP (Homo sapiens, UniProt P55072)
Sequence (P55072 whole entry, species assumed): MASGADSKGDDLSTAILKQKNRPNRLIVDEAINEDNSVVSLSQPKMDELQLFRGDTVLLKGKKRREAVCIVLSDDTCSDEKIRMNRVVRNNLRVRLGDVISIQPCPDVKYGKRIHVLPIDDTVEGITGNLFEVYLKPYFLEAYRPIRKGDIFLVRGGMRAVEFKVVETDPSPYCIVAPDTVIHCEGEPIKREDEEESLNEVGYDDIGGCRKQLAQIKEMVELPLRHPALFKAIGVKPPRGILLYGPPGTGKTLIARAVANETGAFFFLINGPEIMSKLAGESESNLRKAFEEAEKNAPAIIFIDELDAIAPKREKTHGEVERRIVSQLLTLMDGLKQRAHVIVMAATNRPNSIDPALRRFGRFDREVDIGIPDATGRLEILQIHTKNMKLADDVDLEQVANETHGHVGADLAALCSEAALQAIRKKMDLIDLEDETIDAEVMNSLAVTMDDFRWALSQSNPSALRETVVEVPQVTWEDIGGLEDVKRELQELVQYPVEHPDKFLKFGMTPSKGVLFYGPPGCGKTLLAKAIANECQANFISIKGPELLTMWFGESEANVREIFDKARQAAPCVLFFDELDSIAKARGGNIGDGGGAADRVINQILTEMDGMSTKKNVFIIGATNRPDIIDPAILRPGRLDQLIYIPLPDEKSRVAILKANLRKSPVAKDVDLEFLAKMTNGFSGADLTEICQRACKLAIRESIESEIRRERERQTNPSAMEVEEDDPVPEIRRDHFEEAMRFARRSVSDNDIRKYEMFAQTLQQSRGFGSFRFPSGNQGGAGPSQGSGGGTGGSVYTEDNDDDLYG
TEST NAME: ATPase activity of recombinant VCP in vitro (modified molybdate assay, [γ-32P]ATP)
Assay type: biochemical
Report as a plain number; the unit nM is understood.

The compound identified as Nc1c(/N=N/c2ccc(-c3cccc4c3sc3ccccc34)nc2)cc(S(=O)(=O)O)c2ccccc12 registered its IC50 at 1000

The compound identified as Nc1c(/N=N/c2ccc(-c3ccccc3)nc2)cc(S(=O)(=O)O)c2ccccc12 registered its IC50 at 229

We now examine a further compound.
The compound identified as Nc1c(/N=N/c2ccc(-c3ccccc3-c3ccccc3)nc2)cc(S(=O)(=O)O)c2ccccc12 registered its IC50 at 116
